B1: glmS ribozyme (parent)
chain: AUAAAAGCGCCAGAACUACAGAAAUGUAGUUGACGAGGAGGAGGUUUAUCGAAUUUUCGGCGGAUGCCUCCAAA

Variants of: B1
Assay: self-cleavage kobs at 640 uM GlcN6P; higher = faster cleavage; RNA array
Details: with glucosamine-6-phosphate
Fewer inactive variants are shown than the library holds.
valueKind: self-cleavage kobs at 640 uM GlcN6P

Use these answered entries as a reference point.
U30C A64C    < 1e-05 s⁻¹
A12U U54A    0.0221 s⁻¹

I have 6 variants here; please give me self-cleavage kobs at 640 uM GlcN6P for each one.
1. G51U C61A C71A
2. U31A A36U A48U U69C
3. U46A G66A
4. U55A C67G
5. A14G G29U G38C U56C
6. G32A A36G A39C G41U G43U

Return:
1. < 1e-05 s⁻¹
2. < 1e-05 s⁻¹
3. 0.000156 s⁻¹
4. 0.000179 s⁻¹
5. < 1e-05 s⁻¹
6. < 1e-05 s⁻¹

I have 4 variants here; please give me self-cleavage kobs at 640 uM GlcN6P for each one.
1. C11U
2. C11A A14G G43A U45G
3. C11A C16G A42U U56G C71U
4. U30G A39G G41U A48G U69C

Return:
0.000837 s⁻¹
4.76e-05 s⁻¹
< 1e-05 s⁻¹
< 1e-05 s⁻¹
